# Target Under Test: JNK1/2/3
# Test Method Notes: Z'-lyte JNK kinase assays, statements for JNK1/2/3 together
# Conditions: read-out: IC50 for inhibition of JNK kinase activity, Z'-lyte assay format
Parameter Measured: IC50

Fill in: IC50 of CN(C)C/C=C/C(=O)Nc1ccc(C(=O)Nc2cccc(Nc3nccc(-c4cccnc4)n3)c2)cc1 [JNK-IN-2] is ___
~1000 nM

* * *

# Target Under Test: IRAK1 (Homo sapiens)
# Test Method Notes: enzymatic kinase assay on potential off-target
# Format: biochemical
# Conditions: IC50 (nM) (enzymatic) IRAK1
Parameter Measured: IC50

Fill in: IC50 of CN(C)C/C=C/C(=O)Nc1cccc(C(=O)Nc2ccc(Nc3nccc(-c4cccnc4)n3)cc2)c1 is ___
~10 nM

* * *

# Target Under Test: IRAK1 (Homo sapiens, UniProt P51617)
# Sequence (P51617 whole entry, species assumed): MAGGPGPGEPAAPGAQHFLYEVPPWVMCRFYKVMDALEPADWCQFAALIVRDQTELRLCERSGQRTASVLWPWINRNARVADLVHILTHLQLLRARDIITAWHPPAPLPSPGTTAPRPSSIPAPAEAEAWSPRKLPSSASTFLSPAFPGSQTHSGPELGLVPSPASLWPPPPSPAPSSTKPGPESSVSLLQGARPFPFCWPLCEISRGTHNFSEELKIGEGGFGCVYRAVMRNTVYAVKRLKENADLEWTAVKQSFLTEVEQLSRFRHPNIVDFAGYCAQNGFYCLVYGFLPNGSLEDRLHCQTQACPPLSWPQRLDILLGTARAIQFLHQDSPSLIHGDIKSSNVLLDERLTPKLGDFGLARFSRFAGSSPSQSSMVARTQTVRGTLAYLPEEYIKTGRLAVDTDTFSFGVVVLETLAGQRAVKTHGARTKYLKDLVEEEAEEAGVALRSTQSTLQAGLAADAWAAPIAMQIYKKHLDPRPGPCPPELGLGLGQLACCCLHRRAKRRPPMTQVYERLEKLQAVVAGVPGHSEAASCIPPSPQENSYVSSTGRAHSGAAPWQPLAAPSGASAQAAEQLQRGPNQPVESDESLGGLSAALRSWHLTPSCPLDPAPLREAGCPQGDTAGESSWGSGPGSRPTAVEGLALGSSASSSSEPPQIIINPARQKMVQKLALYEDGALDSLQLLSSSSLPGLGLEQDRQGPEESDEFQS
# Test Method Notes: follow-up IC50 determination after enzymatic panel
# Type: biochemical
pIC50: −log10 of the molar value.
Parameter Measured: pIC50

Fill in: pIC50 of CN(C)C/C=C/C(=O)Nc1cccc(C(=O)Nc2ccc(Nc3nccc(-c4cccnc4)n3)cc2)c1 [JNK-IN-7] is ___
> 6.70

* * *

# System: MARK2,MARK3
# Test Method Notes: KiNativ cellular kinase profiling
# Format: cell-based
# Conditions: A375 cells, 1 μM, 3 hours; MARK2,MARK3, labeling site Lys2
Parameter Measured: Percent inhibition of kinase labeling by ATP-biotin (%)
# unit: % | format: bare number

Fill in: Percent inhibition of kinase labeling by ATP-biotin of CCC(=O)Nc1cccc(C(=O)Nc2ccc(Nc3nccc(-c4cccnc4)n3)cc2)c1 is ___
22.9

Fill in: Percent inhibition of kinase labeling by ATP-biotin of CN(C)C/C=C/C(=O)Nc1cccc(C(=O)Nc2ccc(Nc3nccc(-c4c(-c5ccccc5)nn5ccccc45)n3)cc2)c1 is ___
0.4

Fill in: Percent inhibition of kinase labeling by ATP-biotin of CN(C)C/C=C/C(=O)Nc1cccc(C(=O)Nc2ccc(Nc3nccc(/C(C#N)=C4\Nc5ccccc5S4)n3)cc2)c1 is ___
−38.7

Fill in: Percent inhibition of kinase labeling by ATP-biotin of CN(C)C/C=C/C(=O)Nc1cccc(C(=O)Nc2ccc(Nc3nccc(-c4cccnc4)n3)cc2)c1 is ___
26.5

Fill in: Percent inhibition of kinase labeling by ATP-biotin of Cc1cc(NC(=O)c2cccc(NC(=O)/C=C/CN(C)C)c2)ccc1Nc1nccc(-c2cccnc2)n1 is ___
13.9

* * *

Field: Percent inhibition of kinase labeling by ATP-biotin. Provide a value for each of the compounds that follow.
# Tested on: MAP2K1,MAP2K2
# Test Method Notes: KiNativ cellular kinase profiling
# Format: cell-based
# Conditions: A375 cells, 1 μM, 3 hours; MAP2K1,MAP2K2, labeling site Lys2
# unit: % | format: bare number

Fill in: Percent inhibition of kinase labeling by ATP-biotin of CCC(=O)Nc1cccc(C(=O)Nc2ccc(Nc3nccc(-c4cccnc4)n3)cc2)c1 is ___
24.3

Fill in: Percent inhibition of kinase labeling by ATP-biotin of CN(C)C/C=C/C(=O)Nc1cccc(C(=O)Nc2ccc(Nc3nccc(-c4c(-c5ccccc5)nn5ccccc45)n3)cc2)c1 is ___
−10.4

Fill in: Percent inhibition of kinase labeling by ATP-biotin of CN(C)C/C=C/C(=O)Nc1cccc(C(=O)Nc2ccc(Nc3nccc(-c4cccnc4)n3)cc2)c1 is ___
3.2

Fill in: Percent inhibition of kinase labeling by ATP-biotin of CN(C)C/C=C/C(=O)Nc1cccc(C(=O)Nc2ccc(Nc3nccc(/C(C#N)=C4\Nc5ccccc5S4)n3)cc2)c1 is ___
−3.7

Fill in: Percent inhibition of kinase labeling by ATP-biotin of Cc1cc(NC(=O)c2cccc(NC(=O)/C=C/CN(C)C)c2)ccc1Nc1nccc(-c2cccnc2)n1 is ___
3.2

* * *

# Test system: ABL,ARG
# Test Method Notes: KiNativ cellular kinase profiling
# Type: cell-based
# Conditions: A375 cells, 1 μM, 3 hours, labeling site Lys1
Field: Percent inhibition of kinase labeling by ATP-biotin. Provide a value for each of the compounds that follow.
# unit: % | format: bare number

What reported Percent inhibition of kinase labeling by ATP-biotin corresponds to CN(C)C/C=C/C(=O)Nc1cccc(C(=O)Nc2ccc(Nc3nccc(/C(C#N)=C4\Nc5ccccc5S4)n3)cc2)c1 [JNK-IN-12] on ABL,ARG?
7.9

What reported Percent inhibition of kinase labeling by ATP-biotin corresponds to CN(C)C/C=C/C(=O)Nc1cccc(C(=O)Nc2ccc(Nc3nccc(-c4c(-c5ccccc5)nn5ccccc45)n3)cc2)c1 [JNK-IN-11] on ABL,ARG?
56.1

What reported Percent inhibition of kinase labeling by ATP-biotin corresponds to CCC(=O)Nc1cccc(C(=O)Nc2ccc(Nc3nccc(-c4cccnc4)n3)cc2)c1 [JNK-IN-6] on ABL,ARG?
−1.4

What reported Percent inhibition of kinase labeling by ATP-biotin corresponds to Cc1cc(NC(=O)c2cccc(NC(=O)/C=C/CN(C)C)c2)ccc1Nc1nccc(-c2cccnc2)n1 [JNK-IN-8] on ABL,ARG?
−2.7

What reported Percent inhibition of kinase labeling by ATP-biotin corresponds to CN(C)C/C=C/C(=O)Nc1cccc(C(=O)Nc2ccc(Nc3nccc(-c4cccnc4)n3)cc2)c1 [JNK-IN-7] on ABL,ARG?
1.9

* * *

# Tested on: PKD1,PKD2
# Test Method Notes: KiNativ cellular kinase profiling
# Assay type: cell-based
# Conditions: A375 cells, 1 μM, 3 hours; PKD1,PKD2, labeling site Lys2
Field: Percent inhibition of kinase labeling by ATP-biotin. Provide a value for each of the molecules that follow.
# unit: % | format: bare number

What reported Percent inhibition of kinase labeling by ATP-biotin corresponds to Cc1cc(NC(=O)c2cccc(NC(=O)/C=C/CN(C)C)c2)ccc1Nc1nccc(-c2cccnc2)n1 on PKD1,PKD2?
−3

What reported Percent inhibition of kinase labeling by ATP-biotin corresponds to CN(C)C/C=C/C(=O)Nc1cccc(C(=O)Nc2ccc(Nc3nccc(-c4c(-c5ccccc5)nn5ccccc45)n3)cc2)c1 on PKD1,PKD2?
10.4

What reported Percent inhibition of kinase labeling by ATP-biotin corresponds to CCC(=O)Nc1cccc(C(=O)Nc2ccc(Nc3nccc(-c4cccnc4)n3)cc2)c1 on PKD1,PKD2?
15.9

What reported Percent inhibition of kinase labeling by ATP-biotin corresponds to CN(C)C/C=C/C(=O)Nc1cccc(C(=O)Nc2ccc(Nc3nccc(/C(C#N)=C4\Nc5ccccc5S4)n3)cc2)c1 on PKD1,PKD2?
−39.3

What reported Percent inhibition of kinase labeling by ATP-biotin corresponds to CN(C)C/C=C/C(=O)Nc1cccc(C(=O)Nc2ccc(Nc3nccc(-c4cccnc4)n3)cc2)c1 on PKD1,PKD2?
18.2

* * *

# Target Under Test: KIT(L576P) (Homo sapiens, UniProt P10721, L576P)
# Sequence (P10721 26-976 L576P): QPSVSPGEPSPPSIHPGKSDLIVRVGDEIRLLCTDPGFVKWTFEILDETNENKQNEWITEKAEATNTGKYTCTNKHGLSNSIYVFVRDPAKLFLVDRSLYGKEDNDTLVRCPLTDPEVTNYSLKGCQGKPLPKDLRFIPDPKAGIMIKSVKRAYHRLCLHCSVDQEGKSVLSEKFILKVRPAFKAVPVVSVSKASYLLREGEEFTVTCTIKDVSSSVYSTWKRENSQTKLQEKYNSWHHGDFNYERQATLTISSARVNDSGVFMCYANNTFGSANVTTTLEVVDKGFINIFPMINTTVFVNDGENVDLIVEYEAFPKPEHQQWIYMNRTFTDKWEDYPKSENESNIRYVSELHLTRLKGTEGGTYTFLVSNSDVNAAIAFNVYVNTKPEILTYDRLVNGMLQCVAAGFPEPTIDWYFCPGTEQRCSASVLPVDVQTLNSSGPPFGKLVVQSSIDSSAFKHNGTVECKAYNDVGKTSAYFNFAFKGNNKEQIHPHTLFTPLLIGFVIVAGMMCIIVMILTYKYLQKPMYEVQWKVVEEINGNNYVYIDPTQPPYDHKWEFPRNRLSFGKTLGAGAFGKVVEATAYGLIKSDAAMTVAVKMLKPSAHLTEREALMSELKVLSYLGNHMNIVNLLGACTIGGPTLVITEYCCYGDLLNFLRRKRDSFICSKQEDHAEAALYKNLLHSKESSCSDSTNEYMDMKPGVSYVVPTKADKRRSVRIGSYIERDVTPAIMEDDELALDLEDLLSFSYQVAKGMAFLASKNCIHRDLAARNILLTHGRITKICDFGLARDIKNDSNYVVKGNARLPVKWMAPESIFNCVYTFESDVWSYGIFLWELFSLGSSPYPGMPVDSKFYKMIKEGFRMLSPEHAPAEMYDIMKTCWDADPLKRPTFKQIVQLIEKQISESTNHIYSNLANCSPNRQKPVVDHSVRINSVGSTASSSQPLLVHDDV
# Test Method Notes: KinomeScan dissociation constant
Parameter Measured: Kd (nM)
# unit: nM | format: bare number

Fill in: Kd of CN(C)C/C=C/C(=O)Nc1cccc(C(=O)Nc2ccc(Nc3nccc(-c4cccnc4)n3)cc2)c1 [JNK-IN-7] is ___
40

* * *

# Target Under Test: KIT(V559D) (Homo sapiens, UniProt P10721, V559D)
# Sequence (P10721 26-976 V559D): as the sequence (P10721 26-976 L576P) above, with V534D, P551L counted along it
# Test Method Notes: KinomeScan dissociation constant
Parameter Measured: pKd
Recall that pKd is obtained by taking minus log10 of the concentration measured in molar.

Fill in: pKd of Cc1cc(NC(=O)c2cccc(NC(=O)/C=C/CN(C)C)c2)ccc1Nc1nccc(-c2cccnc2)n1 is ___
7.04

Fill in: pKd of CN(C)C/C=C/C(=O)Nc1cccc(C(=O)Nc2ccc(Nc3nccc(-c4cccnc4)n3)cc2)c1 is ___
7.32

Fill in: pKd of CN(C)C/C=C/C(=O)Nc1cccc(C(=O)Nc2ccc(Nc3nccc(-c4c(-c5ccccc5)nn5ccccc45)n3)cc2)c1 is ___
8.09

* * *

# Target Under Test: NUAK1 (Homo sapiens, UniProt O60285)
# Sequence (O60285 whole entry): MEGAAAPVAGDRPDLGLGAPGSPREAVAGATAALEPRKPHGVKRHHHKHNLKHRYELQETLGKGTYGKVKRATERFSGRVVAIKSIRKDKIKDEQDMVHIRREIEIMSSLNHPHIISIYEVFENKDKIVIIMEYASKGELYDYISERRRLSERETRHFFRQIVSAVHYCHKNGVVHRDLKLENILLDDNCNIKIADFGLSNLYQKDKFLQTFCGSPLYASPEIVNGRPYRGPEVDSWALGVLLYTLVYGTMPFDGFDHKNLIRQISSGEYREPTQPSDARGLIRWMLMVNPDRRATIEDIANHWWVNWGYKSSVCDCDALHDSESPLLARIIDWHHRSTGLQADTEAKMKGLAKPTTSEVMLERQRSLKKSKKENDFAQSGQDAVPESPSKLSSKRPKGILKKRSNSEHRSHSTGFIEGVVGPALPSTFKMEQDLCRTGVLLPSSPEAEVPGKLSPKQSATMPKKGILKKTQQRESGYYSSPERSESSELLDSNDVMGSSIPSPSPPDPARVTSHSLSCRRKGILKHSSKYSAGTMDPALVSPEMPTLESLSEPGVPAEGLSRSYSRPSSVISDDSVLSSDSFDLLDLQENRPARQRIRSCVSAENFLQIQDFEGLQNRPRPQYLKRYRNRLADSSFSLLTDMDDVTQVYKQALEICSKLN
Parameter Measured: IC50

Fill in: IC50 of CN(C)C/C=C/C(=O)Nc1cccc(C(=O)Nc2ccc(Nc3nccc(-c4cccnc4)n3)cc2)c1 [JNK-IN-7] is ___
< 200 nM

* * *

# Tested on: ZC1/HGK,ZC2/TNIK, ZC3/MINK
# Test Method Notes: KiNativ cellular kinase profiling
# Assay type: cell-based
# Conditions: A375 cells, 1 μM, 3 hours, labeling site Lys2
Field: Percent inhibition of kinase labeling by ATP-biotin. Provide a value for each of the molecules that follow.
# unit: % | format: bare number

Fill in: Percent inhibition of kinase labeling by ATP-biotin of CN(C)C/C=C/C(=O)Nc1cccc(C(=O)Nc2ccc(Nc3nccc(-c4c(-c5ccccc5)nn5ccccc45)n3)cc2)c1 is ___
65.1

Fill in: Percent inhibition of kinase labeling by ATP-biotin of Cc1cc(NC(=O)c2cccc(NC(=O)/C=C/CN(C)C)c2)ccc1Nc1nccc(-c2cccnc2)n1 is ___
−11.3

Fill in: Percent inhibition of kinase labeling by ATP-biotin of CCC(=O)Nc1cccc(C(=O)Nc2ccc(Nc3nccc(-c4cccnc4)n3)cc2)c1 is ___
8.8

Fill in: Percent inhibition of kinase labeling by ATP-biotin of CN(C)C/C=C/C(=O)Nc1cccc(C(=O)Nc2ccc(Nc3nccc(/C(C#N)=C4\Nc5ccccc5S4)n3)cc2)c1 is ___
−25.5

Fill in: Percent inhibition of kinase labeling by ATP-biotin of CN(C)C/C=C/C(=O)Nc1cccc(C(=O)Nc2ccc(Nc3nccc(-c4cccnc4)n3)cc2)c1 is ___
8.3

Where do the numbers come from? From paper PMC3270411.
